Data provenance: patent US20130281467A1

Provide the reported melting point of each item.

For record Clc1ccc(Cc2cccc(-c3ncc4c(n3)CCCC4)n2)cn1 the listed melting point is 115 to 120 °C

For record CO/N=C1\CC(C)(C)Cc2nc(-c3cccc(Cc4ccccc4OC)n3)ncc21 the listed melting point is 239 to 241 °C

For record CC1(C)CCc2cnc(-c3cccc(Cc4ccccc4Cl)n3)nc2C1 the listed melting point is 272 to 273 °C

For record CC(c1ccccc1)c1cccc(-c2ncc3c(n2)CC(C)(C)CC3)n1 (centres unmarked) the listed melting point is 136 to 138 °C

For record Cc1ccccc1Cc1cccc(-c2ncc3c(n2)CCOC3)n1 the listed melting point is 132 to 133 °C

For record Clc1ccccc1Cc1cccc(-c2ncc3c(n2)CCOC3)n1 the listed melting point is 112 to 113 °C

For record CC1(C)CCc2cnc(-c3cccc(Cc4ccc(Cl)cc4)n3)nc2C1 the listed melting point is 183 to 184 °C

For record COc1ccc(OC)c(Cc2cccc(-c3ncc4c(n3)CCOC4)n2)c1 the listed melting point is 286 to 288 °C

For record Clc1cccc(Cc2cccc(-c3ncc4c(n3)CCOC4)n2)c1 the listed melting point is 148 to 149 °C

For record Clc1ccc(Cc2cccc(-c3ncc4c(n3)CCOC4)n2)cc1 the listed melting point is 104 to 106 °C

For record CC1(C)CCc2cnc(-c3cccc(Cc4cccc(Cl)c4)n3)nc2C1 the listed melting point is 219 to 220 °C

For record c1ccc(Cc2cccc(-c3ncc4c(n3)CCOC4)n2)cc1 the listed melting point is 244 to 245 °C

For record COc1ccccc1Cc1cccc(-c2ncc3c(n2)CCOC3)n1 the listed melting point is 135 to 137 °C

For record CO/N=C1\CCCc2nc(-c3cccc(Cc4ccccc4)n3)ncc21 the listed melting point is 213 to 215 °C

For record CC1(C)CCc2cnc(-c3cccc(Cc4ccccc4)n3)nc2C1 the listed melting point is 226 to 228 °C

For record c1ccc(Cc2cccc(-c3ncc4c(n3)CCC3(C4)OCCO3)n2)cc1 the listed melting point is 236 to 237 °C

For record COc1ccc(Cc2cccc(-c3ncc4c(n3)CCOC4)n2)cc1 the listed melting point is 216 to 219 °C

For record COc1ccccc1Cc1cccc(-c2ncc3c(n2)CC(C)(C)CC3)n1 the listed melting point is 251 to 252 °C

For record CC1(C)CCc2cnc(-c3cccc(Cc4cccc(C#N)c4)n3)nc2C1 the listed melting point is 222 to 223 °C

For record N#Cc1cccc(Cc2cccc(-c3ncc4c(n3)CCOC4)n2)c1 the listed melting point is 206 to 207 °C

For record O=C1CCCc2nc(-c3cccc(Cc4ccccc4)n3)ncc21 the listed melting point is 69 to 75 °C

For record CO/N=C1\CCc2nc(-c3cccc(Cc4ccccc4)n3)ncc2C1 the listed melting point is 175 to 177 °C

For record Cc1ccccc1Cc1cccc(-c2ncc3c(n2)CC(C)(C)CC3)n1 the listed melting point is 259 to 260 °C
